- Tested on: NCI-H1417 complex spheroids, growth % test/control
- measurement.description: Anticancer human tumor NCI-H1417 cell line growth inhibition [Asc];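 further: spheroids exposed to compounds for 7 days; 100% = DMSO vehicle control wells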
- condition.context: second compound 0.316 µM; first compound 0.00949 µM; stronger effect = lower value
endpoint.label: viability, T/C

| molecule | result |
| --- | --- |
| Cc1nc(N2CCC3(CC2)COC(C)C3N)c(CO)nc1Sc1ccnc(N)c1Cl (centres undefined) + CNC(C)C(=O)NC1CN(S(=O)(=O)c2cccc(S(=O)(=O)N3CCC4CCC(C(=O)NC(c5ccccc5)c5ccccc5)N4C(=O)C(NC(=O)C(C)NC)C3)c2)CCC2CCC(C(=O)NC(c3ccccc3)c3ccccc3)N2C1=O | 82.8% |
| CCN1C(C(=O)NC23CCC(C(=O)O)(CC2)CC3)C(c2cccc(Cl)c2F)C2(C(=O)Nc3cc(Cl)ccc32)C12CCCCC2 (centres undefined) + Cc1c(S(C)(=O)=O)c(-c2cc(F)cc(N3CCN(c4ccc(NS(=O)(=O)c5ccc(NC(CCN6CCC(C(=O)OCCCP(=O)(O)O)CC6)CSc6ccccc6)c(S(=O)(=O)C(F)(F)F)c5)cc4)CC3)c2)c(-c2ccc(Cl)cc2)n1C(C)C | 35.7% |
| Cc1nc(N2CCC3(CC2)COC(C)C3N)c(CO)nc1Sc1ccnc(N)c1Cl (centres undefined) + Cc1c(S(C)(=O)=O)c(-c2cc(F)cc(N3CCN(c4ccc(NS(=O)(=O)c5ccc(NC(CCN6CCC(C(=O)OCCCP(=O)(O)O)CC6)CSc6ccccc6)c(S(=O)(=O)C(F)(F)F)c5)cc4)CC3)c2)c(-c2ccc(Cl)cc2)n1C(C)C | 46.9% |
| CCN1C(C(=O)NC23CCC(C(=O)O)(CC2)CC3)C(c2cccc(Cl)c2F)C2(C(=O)Nc3cc(Cl)ccc32)C12CCCCC2 (centres undefined) + CNC(C)C(=O)NC1CN(S(=O)(=O)c2cccc(S(=O)(=O)N3CCC4CCC(C(=O)NC(c5ccccc5)c5ccccc5)N4C(=O)C(NC(=O)C(C)NC)C3)c2)CCC2CCC(C(=O)NC(c3ccccc3)c3ccccc3)N2C1=O | 105% |
